system: thyroid hormone receptor (endogenous TRα and TRβ); set-up: species or system GH3-TRE-Luc (rat pituitary); GH3-TRE-Luc luciferase reporter, antagonist mode against 1 nM T3, loss of signal, qHTS; details: read-out: Average AC50 (uM) GH3-TRE-Antag, antagonist mode, 1 nM T3, no GH3 cytotoxicity hit
Each record is given class 1 if its reported AC50 is strictly below 50 µM. Records at or above 50 µM are given class 0.

CC1(C)[C@H](C=C(Cl)Cl)[C@H]1C(=O)O[C@H](C#N)c1cccc(Oc2ccccc2)c1; class 0
Cl[C@H]1[C@H](Cl)[C@@H](Cl)[C@@H](Cl)[C@H](Cl)[C@H]1Cl; class 0

Field: below-cutoff. Rule: recorded AC50 strictly less than 50 µM. Subject: CC(C)=CC1C(C(=O)OC(C#N)c2cccc(Oc3ccccc3)c2)C1(C)C (stereo not drawn)
class 0

Criterion: AC50 strictly below 50 µM. Is it met by "c1ccc2c(c1)ccc1ncccc12" ?
class 0

----------
tested on: thyroid hormone receptor (endogenous TRα and TRβ); parameters: species or system GH3-TRE-Luc (rat pituitary); GH3-TRE-Luc luciferase reporter, antagonist mode against 1 nM T3, loss of signal, qHTS; settings: read-out: Average AC50 (uM) GH3-TRE-Antag, antagonist mode, 1 nM T3, no GH3 cytotoxicity hit
Measured metric: AC50 (µM)
Use µM as the unit, but write only the number.

Name the recorded AC50 of "CON(C)C(=O)Nc1ccc(Cl)c(Cl)c1" , assay system thyroid hormone receptor (endogenous TRα and TRβ).
61.4

# return AC50 of CCCN(CC)CC1COC2(CCC(C(C)(C)C)CC2)O1 (stereo not shown) (system: thyroid hormone receptor (endogenous TRα and TRβ))
66.6

Write down measured AC50 (thyroid hormone receptor (endogenous TRα and TRβ)) for this compound. "CC(C)(C)C(=O)OCOP(=O)(COCCn1cnc2c(N)ncnc21)OCOC(=O)C(C)(C)C"
46.6

Please respond with reported AC50 (system thyroid hormone receptor (endogenous TRα and TRβ)) for CN1C(=O)[C@@H](NC(=O)c2cc3ccccc3[nH]2)N=C(c2ccccc2)c2ccccc21 [Devazepide] .
6.13

----------
system: thyroid hormone receptor (endogenous TRα and TRβ); design: species or system GH3-TRE-Luc (rat pituitary); GH3-TRE-Luc luciferase reporter, antagonist mode against 1 nM T3, loss of signal, qHTS; settings: read-out: Average AC50 (uM) GH3-TRE-Antag, antagonist mode, 1 nM T3, no GH3 cytotoxicity hit
Listing: AC50 of selected compounds

Give the reported AC50 for this compound. c1ccc(P(c2ccccc2)c2ccccc2)cc1 [Triphenylphosphine]
> 90 µM

----------
Below, each entry is listed with its recorded AC50.
test system: thyroid hormone receptor (endogenous TRα and TRβ); parameters: species or system GH3-TRE-Luc (rat pituitary); GH3-TRE-Luc luciferase reporter, antagonist mode against 1 nM T3, loss of signal, qHTS; details: read-out: Average AC50 (uM) GH3-TRE-Antag, antagonist mode, 1 nM T3, no GH3 cytotoxicity hit
Where a name gives a salt, the structure may show the parent alone.
Use µM as the unit, but write only the number.

Cc1cc(O)c2c(c1)C(=O)c1cccc(O)c1C2=O; 40.7

Report the value of AC50 obtained on thyroid hormone receptor (endogenous TRα and TRβ) for "CC1=C2[C@H](/C=C(\C)C(=O)O)CC[C@@H](C)[C@H]2CC1" .
57.5

Quote thyroid hormone receptor (endogenous TRα and TRβ) AC50 for entry CCCCCCCCCCCCSC#N [Lauryl thiocyanate] .
42.6

Output reported AC50 of the compound "COc1ccc(/C=C/C(=O)Nc2ccccc2C(=O)O)cc1OC" on thyroid hormone receptor (endogenous TRα and TRβ).
12.3

Param request: AC50 | system thyroid hormone receptor (endogenous TRα and TRβ) | item CC(=O)Oc1ccc(C2(c3ccc(OC(C)=O)cc3)Oc3ccccc3NC2=O)cc1 [Bisoxatin acetate]
3.76

Look up thyroid hormone receptor (endogenous TRα and TRβ) data: AC50 of "O=C(O)c1cccc(C[C@@H]2COc3ccc(OCc4nc5cc(F)ccc5s4)cc3[C@@H]2O)c1" , then report it.
53.1

Lab note: record AC50 of CCc1c2c(nc3ccc(OC(=O)N4CCC(N5CCCCC5)CC4)cc13)-c1cc3c(c(=O)n1C2)COC(=O)[C@]3(O)CC [Irinotecan hydrochloride] tested on thyroid hormone receptor (endogenous TRα and TRβ).
19.1

Give AC50 for "Oc1c(I)cc(I)c2cccnc12" tested on thyroid hormone receptor (endogenous TRα and TRβ).
11.5

Find the measured AC50 of CC(C)NCC(O)COc1ccc(CCOCC2CC2)cc1 (centres unmarked) with thyroid hormone receptor (endogenous TRα and TRβ) as test system.
39.4
